Target: CYP1A2 (Homo sapiens, UniProt P05177)
Sequence (P05177 1-516): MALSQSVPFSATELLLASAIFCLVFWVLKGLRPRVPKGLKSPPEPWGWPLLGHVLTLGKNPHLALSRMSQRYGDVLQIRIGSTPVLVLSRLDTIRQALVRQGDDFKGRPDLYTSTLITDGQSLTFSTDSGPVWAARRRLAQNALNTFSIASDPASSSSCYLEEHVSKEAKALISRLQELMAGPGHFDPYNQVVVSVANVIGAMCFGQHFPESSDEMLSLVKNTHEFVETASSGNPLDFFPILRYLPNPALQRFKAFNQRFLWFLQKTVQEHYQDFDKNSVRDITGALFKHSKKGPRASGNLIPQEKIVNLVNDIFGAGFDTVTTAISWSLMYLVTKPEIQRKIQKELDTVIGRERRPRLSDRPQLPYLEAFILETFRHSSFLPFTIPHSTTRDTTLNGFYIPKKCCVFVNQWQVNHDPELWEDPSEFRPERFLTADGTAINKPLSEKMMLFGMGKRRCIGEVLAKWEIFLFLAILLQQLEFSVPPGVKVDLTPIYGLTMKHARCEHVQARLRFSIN
pIC50: −log10 of the molar value.
test.readout: pIC50

INSERT INTO assay_data (compound, tested_target, reported) VALUES
  ('COc1ccc2nc3cc(Cl)ccc3c(Nc3ccc(O)c(CN4CCN(CCN(C(C)C)C(C)C)CC4)c3)c2c1 [Compound 6]', 'CYP1A2 (Homo sapiens, UniProt P05177)', 5.19);

###

biological target: CYP3A4-M (Homo sapiens, UniProt P08684); assay: Cytochrome P450 inhibition, CYP3A4-M; assay type: in vitro ADME
Sequence (P08684 whole entry): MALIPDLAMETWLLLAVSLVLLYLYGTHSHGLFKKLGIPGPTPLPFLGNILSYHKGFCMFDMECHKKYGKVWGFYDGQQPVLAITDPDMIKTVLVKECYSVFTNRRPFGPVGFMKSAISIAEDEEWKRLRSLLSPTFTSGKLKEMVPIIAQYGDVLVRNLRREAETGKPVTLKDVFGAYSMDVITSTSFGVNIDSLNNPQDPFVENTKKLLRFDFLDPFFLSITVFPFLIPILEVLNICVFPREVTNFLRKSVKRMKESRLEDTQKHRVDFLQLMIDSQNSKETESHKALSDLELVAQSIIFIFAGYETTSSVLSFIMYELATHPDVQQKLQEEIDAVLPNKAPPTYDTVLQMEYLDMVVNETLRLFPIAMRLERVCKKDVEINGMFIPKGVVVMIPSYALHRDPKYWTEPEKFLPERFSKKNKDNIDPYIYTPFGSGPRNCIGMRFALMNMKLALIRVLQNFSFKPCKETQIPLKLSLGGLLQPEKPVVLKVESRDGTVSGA
pIC50: −log10 of the molar value.
test.readout: pIC50

INSERT INTO assay_data (structure, tested_target, test_readout, reported) VALUES
  ('COc1ccc2nc3cc(Cl)ccc3c(Nc3ccc(O)c(CN4CCN(CCN(C(C)C)C(C)C)CC4)c3)c2c1', 'CYP3A4-M (Homo sapiens, UniProt P08684)', 'pIC50', 5.72);

###

assay: Metabolic stability in human liver microsomes; format: in vitro ADME; conditions: human, liver microsomes; read-out: Metabolic stability in human liver microsomes (clearance)
test.readout: CLint scaled (mL/min/kg)

INSERT INTO assay_data (compound, test_readout, reported) VALUES
  ('COc1ccc2nc3cc(Cl)ccc3c(Nc3ccc(O)c(CN4CCN(CCN(C(C)C)C(C)C)CC4)c3)c2c1 [Compound 6]', 'CLint scaled', 376);

###

test: Bidirectional permeability in Caco-2 cells; format: in vitro ADME; conditions: human
test.readout: efflux ratio

INSERT INTO results (structure, reported) VALUES
  ('COc1ccc2nc3cc(Cl)ccc3c(Nc3ccc(O)c(CN4CCN(CCN(C(C)C)C(C)C)CC4)c3)c2c1', 27.5);

###

assay: Metabolic stability in cryopreserved human hepatocytes; type: in vitro ADME; details: human, cryopreserved hepatocytes; read-out: Metabolic stability in cryopreserved human hepatocytes (clearance)
test.readout: CLint scaled

INSERT INTO results (molecule, reported) VALUES
  ('COc1ccc2nc3cc(Cl)ccc3c(Nc3ccc(O)c(CN4CCN(CCN(C(C)C)C(C)C)CC4)c3)c2c1 [Compound 6]', '33.5 mL/min/kg');

###

biological target: CYP2D6 (Homo sapiens, UniProt P10635); test: Cytochrome P450 inhibition, CYP2D6; assay type: in vitro ADME
Sequence (P10635 whole entry): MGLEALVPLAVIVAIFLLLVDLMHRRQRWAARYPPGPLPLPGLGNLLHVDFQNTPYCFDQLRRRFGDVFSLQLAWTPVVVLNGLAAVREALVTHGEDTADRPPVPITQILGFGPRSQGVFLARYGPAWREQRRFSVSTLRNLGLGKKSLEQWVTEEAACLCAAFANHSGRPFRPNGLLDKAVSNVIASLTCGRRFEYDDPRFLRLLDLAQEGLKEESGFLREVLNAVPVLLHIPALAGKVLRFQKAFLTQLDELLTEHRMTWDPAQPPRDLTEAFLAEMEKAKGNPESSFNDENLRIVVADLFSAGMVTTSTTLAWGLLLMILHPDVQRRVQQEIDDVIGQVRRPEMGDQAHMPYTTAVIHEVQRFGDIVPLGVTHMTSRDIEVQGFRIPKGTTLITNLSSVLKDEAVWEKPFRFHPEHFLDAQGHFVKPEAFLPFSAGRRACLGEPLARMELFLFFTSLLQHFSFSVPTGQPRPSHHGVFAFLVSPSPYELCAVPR
test.readout: IC50 (nM)

INSERT INTO results (structure, readout_unit, reported) VALUES
  ('COc1ccc2nc3cc(Cl)ccc3c(Nc3ccc(O)c(CN4CCN(CCN(C(C)C)C(C)C)CC4)c3)c2c1', 'nM', 2920);
